Experiment: folding stability dG unfold from chymotrypsin proteolysis; higher = more stable
Please mark Met if the recorded folding stability dG unfold is equal to or greater than 1 kcal/mol, and Not met if it falls below.

// query Does SAGGGFEEIIEKAIAKAKELFPDTGAVVPITETVYDPVKKKPIVIEVLVEFDKDGKIKKVEILKISELSAGG [r13_770_TrMRF] have a reported folding stability dG unfold of at least 1 kcal/mol?
// result Met

// query Does SAGGSAGGGYAEFETTAVLPDGRVYRAKIVLSPDPDIVKIRLFSPEGEEEIELHPDDPLLLTPGSAGGSAGG [r6_926_TrMRF] have a reported folding stability dG unfold of at least 1 kcal/mol?
// result Met

// query Does SAGSKTISISVPGNWNIEELKAFLSTLPDNVTVYIFYPNKVYVGTVDKKNINLSADSSYDGFKVLVVVPSAG [r5_373_TrMRF] have a reported folding stability dG unfold of at least 1 kcal/mol?
// result Met

// query Does SMIKPGDTVTIVLKVKPEDLEKIREAVEELLRELFPDVEVESVEVNPEEENYVVITVRVDGKEITLVIERSA [r9_1079_TrROS_Hall] have a reported folding stability dG unfold of at least 1 kcal/mol?
// result Met

// query Does SAGGSAGGSAGGRIRLPGWEIEDVKVYETGDKPYYTITYKNPNGKPKKMLMPADDLDDFSAGGSAGGSAGGS [r10_645_TrROS] have a reported folding stability dG unfold of at least 1 kcal/mol?
// result Not met

// query Does SAGGSITKTLGTEEKGDKTITYSVTTSPEGKITFTTTTKTPSGSGTSTTTTTTTTPLAGLPLPPLGGSAGGS [r8_458_JUSTAS] have a reported folding stability dG unfold of at least 1 kcal/mol?
// result Not met

// query Does SAGGSAGGSAMKIVEWNEETGELTIELPDGTKITLKVENGEITEVKVEPLPPVPPDLPELKSAGGSAGGSAG [r3_406_TrROS_Hall] have a reported folding stability dG unfold of at least 1 kcal/mol?
// result Met

* * *

Assay: folding stability dG unfold (combined trypsin and chymotrypsin); higher = more stable
In this scheme, each record receives a class according to its folding stability dG unfold; the ranges are small value: < 1 kcal/mol; mid value: ≥ 1 kcal/mol and < 2 kcal/mol; large value: ≥ 2 kcal/mol

// query Given SAGEPEKVTITLVDEETGVVITIEIDKETKKITITVESEEERERARELAERLAKELEEAGIKVEILPPSAGG [r19_354_TrROS_Hall] , name the class its folding stability dG unfold places it in.
// result large value

// query Given SAGGSDVEIEVFENAIIITIPLDLDNGKGETVEVRIIAPFTPDGRPIFRIEVINPDSDEVVTFTFPSAGGSA [r2_484_TrMRF] , name the class its folding stability dG unfold places it in.
// result large value

// query Given SIKLSNGETIEYEPSPNKTYTIKHPDGRVVKILKVEREKDKYTVEIQFDDGSTKTIEIPPDKPEIIEKELLS [r1_66_JUSTAS] , name the class its folding stability dG unfold places it in.
// result mid value

// query Given SAGGSAGGSAGGKEKKELYVVIKVDKNMTPEEIAEKLKKEFNVDKVEVEVREDGYLVVKVSAGGSAGGSAGG [r7_273_TrROS_Hall] , name the class its folding stability dG unfold places it in.
// result mid value

// query Given SAGGSAGGEKTTVLVRVELYLEDTEVVELPDFVFTDLTEEQVLEEVRKLGLPDNVKVEIIPLPASAGGSAGG [r6_88_TrMRF] , name the class its folding stability dG unfold places it in.
// result large value

// query Given SAGGSAGGMSPDAKPIGEKTDESPGPEKVTTTTLKSPDPSLTYTVTTTTVGSTTTTTTTAVPVLSAGGSAGG [r6_923_JUSTAS] , name the class its folding stability dG unfold places it in.
// result small value

// query Given SAPDKIEIPITFPNGYTFWIKIDPDRIRVTWMDNGLRREKEITPDGMIKLDFRMPNGRPIMSPTIPLEDSAG [r14_213_TrROS] , name the class its folding stability dG unfold places it in.
// result mid value

// query Given SAGPIKELLEFLKANPDAVVEFEFTLPNGAKVKIKAKKFPDAVVLEVTTIDPNNKKPITGTITIPLPESAGG [r19_143_TrMRF] , name the class its folding stability dG unfold places it in.
// result large value

// query Given STLEELLEAIEKLPPGAVVRITITLENGEKIELPIEMTVEELKEQLEALAAEHPGKKIEIKIEVIPKEELSA [r9_37_TrROS_Hall] , name the class its folding stability dG unfold places it in.
// result large value

// query Given SMTVTTDPSSLTFTLPPTYTSVEQAREALEELGFKLPSSVKSITIESVDEGKNLNTITVTFDDPEALKKLSA [r9_820_JUSTAS] , name the class its folding stability dG unfold places it in.
// result small value

// query Given SAGGKVEIYNPNGQWKEITPEDLEGLKPGTIWQMPNGPVMIEIPGNDETIPIPMDSPNDIKDAIKDALSAGG [r13_962_TrROS] , name the class its folding stability dG unfold places it in.
// result small value

// query Given SAGGSAEKPTATLRPVVLNYPEGPISRDPSGNVVNSPEELAKEVKEEILKKTGLPVEEIVVLVEPPSAGGSA [r15_415_JUSTAS] , name the class its folding stability dG unfold places it in.
// result small value

// query Given SAGGSAGGSAPNMDWVMIPIRVPPGEPPKVKITFPDGPTREFDPGRWVWIWFPPGDPMKIEPESAGGSAGGS [r12_553_TrROS] , name the class its folding stability dG unfold places it in.
// result mid value

// query Given SAGGSAGGSAGGSPPNMEPVETQEYQIGNDFIIKVDTYRMPDPDMYFVDIEITPDALKASAGGSAGGSAGGS [r4_163_TrROS] , name the class its folding stability dG unfold places it in.
// result mid value

* * *

Experiment: folding stability dG unfold from chymotrypsin proteolysis; higher = more stable
Exercise: for every item that follows, state its recorded folding stability dG unfold.
Write down the numeric answer in kcal/mol and omit the unit.

So, LDPNKPENIALLEKVEEAAKAVIEELEKAGYKVEKLYVALGPNGIKIAPVTIPPEFIEELKKAGILVIPVLS [r1_134_TrMRF] ? Its folding stability dG unfold was 1.64

So, SAGSVTITLNIPPGQDVTLNIGGKEATLTVDPETKVYTMTDPQTGDVWTVTVDPNSPVASVTYTAAPAGSAG [r5_302_JUSTAS] ? Its folding stability dG unfold was 1.57

So, SADLAAELEEGGFVVTITETVVSVTPQTLEKDSFVVEKDVVTTITVTPPPVAPPPPDPANLRDAAGAPVSAG [r14_569_JUSTAS] ? Its folding stability dG unfold was 1.01

So, SAGGSAGGMVTFTVEYESDPALLEKLKEELPGVEILEVKREGPKKTITITIKVPSEEKAKKFLSSAGGSAGG [r6_334_JUSTAS] ? Its folding stability dG unfold was 1.16

So, SAGGMPKTIEVEIVFKRDEEGKIGIDKIKKAAEELAKKFPEVKKVEVDIEEDPETDYVKVKVKVEVESAGGS [r8_258_TrMRF] ? Its folding stability dG unfold was 2.34

So, SAGGSAGGSMTPANVVRIEPSPDGILRVTLTHPDGTVTTVEVSPDNLDIGAPDNVTDVTLAPVSAGGSAGGS [r20_194_TrMRF] ? Its folding stability dG unfold was 1.72

So, SAGGSAGGSAGWLMIMFPIPPNADNVRIKWPDGPTQEHEMEPGSPVMIMIPPGNIKIEVDSAGGSAGGSAGG [r11_52_TrROS] ? Its folding stability dG unfold was 1.24

* * *

Exercise: for every item that follows, state its recorded folding stability dG unfold.
Test: folding stability dG unfold (combined trypsin and chymotrypsin); higher = more stable

So, SAGGGSMFSTIYDPNSNNSIEAPLLSIREEDGRPTIEYQLPDGTRVTRPLSELGAFTLTGGAGSLTLPSAGG [r13_211_JUSTAS] ? Its folding stability dG unfold was 0.774 kcal/mol

So, SAGGSAGGSAGGKKIIKVNLRIYDPVNPKVTVLPIEAPFDEIIKIAKEIAAPDQVVEISSAGGSAGGSAGGS [r10_397_TrMRF] ? Its folding stability dG unfold was -0.654 kcal/mol

So, SAGGSAGGSAGEPIRVRIENPPGGQRKITIPTDDLQEKGITPKDIAKKLAREFGWPIEVWSAGGSAGGSAGG [r11_829_TrROS] ? Its folding stability dG unfold was < -1 kcal/mol

So, SAGGSAGGSAGGMVIEIDVPPSVPASEVKEKVKAELLKKGVPKDTEIKVIVKPKNPELLSAGGSAGGSAGGS [r10_746_JUSTAS] ? Its folding stability dG unfold was < -1 kcal/mol

So, SAGGSVTLSAEFTLPDGSRVRLTVEVLPDGTLRVSAEVEAVPLVPPVRVSRLPDGSLVSDPLGVPLVLSAGG [r13_151_TrMRF] ? Its folding stability dG unfold was 1.57 kcal/mol

So, SAGGSAGGSEWTIESIRPRPDGSLIARVRPEGVNVSVEVEFDTLEELLAFAKLLEELGGKVTGSAGGSAGGS [r20_177_TrMRF] ? Its folding stability dG unfold was 1.82 kcal/mol

So, SAGGSAGGSAGMVIEVGGKKVTIEKNEDGSLKITVTDKNGKKKEITIPGMSLEEILKALKSAGGSAGGSAGG [r11_934_TrROS_Hall] ? Its folding stability dG unfold was 2.9 kcal/mol
